Reference source for all entries: the supplement of paper PMC10567573

Provide the recorded protein stability index for the entries that follow.
B1: SPATS1 (parent)
chain: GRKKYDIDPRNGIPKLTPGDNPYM

- Variants of: B1
- assay-procedure: protein stability index of a GFP-peptide fusion (GPS, HEK-293T) (PSI 1-6); higher = more stable;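 further: lentivirally expressed fusions sorted by FACS into six bins by GFP to DsRed ratio, PSI derived from sequencing read proportions per bin multiplied by bin number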
- details: c terminus: a fixed tail appended
Output spec: single numeric token, no unit.

Which protein stability index is listed for `D8Y` ? 2.68

Would you mind telling me what protein stability index value was observed for `L16T` ? 3.98

# input variant: `G12T` ; wanted: its protein stability index 3.22

Recorded protein stability index for `I13G` , please? 3.78

Please look up its protein stability index: `P9I` 3.69

Look up protein stability index: `D6S` 3.4

Give its protein stability index value. Item: `Y5F` 3.51

Requested field: protein stability index. Item: `T17Q` 4.21

Quick one: protein stability index of `G12V` ? 3.46

// lookup protein stability index for `T17M` 3.02

Given `R10W` , state its recorded protein stability index. 2.56

Dear colleague, I am looking for the recorded protein stability index of the following variant: `D20E` 3.65

Fill blank: measured protein stability index of the variant `Y5G` is ____. 4.44

Report protein stability index for `D8P` please. 3.42

Entry under review: `D20F` . Reported protein stability index? 2.33

Need protein stability index of `R10G` , thanks. 3.68

May I ask what protein stability index has been recorded for `G1F` ? 2.88

I would be grateful if you could share the reported protein stability index for `G19N` . 3.76

What value of measured protein stability index is listed for `R10F` ? 2.7

Recorded protein stability index for `K15L` , please? 3.29

Recorded protein stability index for `L16S` , please? 3.67

Which measured protein stability index value corresponds to `R2W` ? 2.73
